The origin of these recorded values is PubChem BioAssay.

system: R275C/beta2Delta; experiment: modulators of BK channel variants, profiling panel, selectivity assay, cell-based, U2OS BacMam, thallium flux, beta subunits (AID 1259406); details: at 30 µM;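 note: initial slope of Thallos dye fluorescence rise after thallium is added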
Kind request: treat 0.01 as inclusive, so log fold change Tl+ flux at 0.01 or higher is satisfied, anything lower is not satisfied.

Challenge: For this molecule, is measured log fold change Tl+ flux 0.01 or higher? CC(CCc1ccccc1)NCC(O)c1ccc(O)c(C(N)=O)c1 (stereo unspecified)
Response given: satisfied

Challenge: For this molecule, is measured log fold change Tl+ flux 0.01 or higher? `OC[C@H]1O[C@@H](Oc2cc(O)cc(/C=C/c3ccc(O)cc3)c2)[C@H](O)[C@@H](O)[C@@H]1O`
Response given: not satisfied

Challenge: For this molecule, is measured log fold change Tl+ flux 0.01 or higher? CON=C(C(=O)NC1C(=O)N2C(C(=O)O)=C(COC(C)=O)CSC12)c1csc(N)n1 (stereo unspecified)
Response given: not satisfied

Challenge: For this molecule, is measured log fold change Tl+ flux 0.01 or higher? C[N+]1(C)CCCC(OC(=O)C(O)(c2ccccc2)c2ccccc2)C1 (stereo unspecified)
Response given: not satisfied

Challenge: For this molecule, is measured log fold change Tl+ flux 0.01 or higher? `Cc1occc(=O)c1O`
Response given: satisfied

Challenge: For this molecule, is measured log fold change Tl+ flux 0.01 or higher? CC(C)[N+]1(C)C2CCC1CC(OC(=O)C(CO)c1ccccc1)C2 (stereo unspecified)
Response given: not satisfied

Challenge: For this molecule, is measured log fold change Tl+ flux 0.01 or higher? `C[C@]12CC[C@@H]3c4ccc(O)cc4CC[C@H]3[C@@H]1CC[C@@H]2O`
Response given: not satisfied

Challenge: For this molecule, is measured log fold change Tl+ flux 0.01 or higher? `CC(=O)OCC(=O)[C@@]1(O)CC[C@H]2[C@@H]3CCC4=CC(=O)CC[C@]4(C)[C@H]3[C@@H](O)C[C@@]21C`
Response given: not satisfied

Challenge: For this molecule, is measured log fold change Tl+ flux 0.01 or higher? `CCCC(CCC)C(=O)O`
Response given: satisfied

Challenge: For this molecule, is measured log fold change Tl+ flux 0.01 or higher? CCc1ccc(CCOc2ccc(CC3SC(=O)NC3=O)cc2)nc1 (stereo unspecified)
Response given: not satisfied

Challenge: For this molecule, is measured log fold change Tl+ flux 0.01 or higher? `O=C(O)CCc1nc(-c2ccccc2)c(-c2ccccc2)o1`
Response given: satisfied

Challenge: For this molecule, is measured log fold change Tl+ flux 0.01 or higher? `CCn1cc(C(=O)O)c(=O)c2ccc(C)nc21`
Response given: not satisfied

Challenge: For this molecule, is measured log fold change Tl+ flux 0.01 or higher? `CN(C)c1nc(N(C)C)nc(N(C)C)n1`
Response given: not satisfied

Challenge: For this molecule, is measured log fold change Tl+ flux 0.01 or higher? `COC(=O)[C@H](c1ccccc1Cl)N1CCc2sccc2C1`
Response given: not satisfied

Challenge: For this molecule, is measured log fold change Tl+ flux 0.01 or higher? `O=[N+]([O-])c1cccc2cn[nH]c12`
Response given: satisfied

Challenge: For this molecule, is measured log fold change Tl+ flux 0.01 or higher? CC(C)(C(=O)O)c1ccc(C(O)CCCN2CCC(C(O)(c3ccccc3)c3ccccc3)CC2)cc1 (stereo unspecified)
Response given: not satisfied

Challenge: For this molecule, is measured log fold change Tl+ flux 0.01 or higher? `CN1C(=O)CC[C@H]1c1cccnc1`
Response given: not satisfied

Challenge: For this molecule, is measured log fold change Tl+ flux 0.01 or higher? `CC[C@H]1OC(=O)[C@H](C)[C@@H](O[C@H]2C[C@@](C)(OC)[C@@H](O)[C@H](C)O2)[C@H](C)[C@@H](O[C@@H]2O[C@H](C)C[C@H](N(C)C)[C@H]2O)[C@](C)(OC)C[C@@H](C)C(=O)[C@H](C)[C@@H](O)[C@]1(C)O`
Response given: satisfied

Challenge: For this molecule, is measured log fold change Tl+ flux 0.01 or higher? `COc1ccc2c3c1O[C@H]1C[C@@H](O)C=C[C@@]31CCN(C)C2`
Response given: satisfied

Challenge: For this molecule, is measured log fold change Tl+ flux 0.01 or higher? `CCCCC(=O)N(Cc1ccc(-c2ccccc2-c2nn[nH]n2)cc1)[C@H](C(=O)O)C(C)C`
Response given: satisfied
